In this section, each of the compounds is paired with its reported pKd.
subject of test: MLKL (Homo sapiens)
Sequence (Q8NB16 whole entry): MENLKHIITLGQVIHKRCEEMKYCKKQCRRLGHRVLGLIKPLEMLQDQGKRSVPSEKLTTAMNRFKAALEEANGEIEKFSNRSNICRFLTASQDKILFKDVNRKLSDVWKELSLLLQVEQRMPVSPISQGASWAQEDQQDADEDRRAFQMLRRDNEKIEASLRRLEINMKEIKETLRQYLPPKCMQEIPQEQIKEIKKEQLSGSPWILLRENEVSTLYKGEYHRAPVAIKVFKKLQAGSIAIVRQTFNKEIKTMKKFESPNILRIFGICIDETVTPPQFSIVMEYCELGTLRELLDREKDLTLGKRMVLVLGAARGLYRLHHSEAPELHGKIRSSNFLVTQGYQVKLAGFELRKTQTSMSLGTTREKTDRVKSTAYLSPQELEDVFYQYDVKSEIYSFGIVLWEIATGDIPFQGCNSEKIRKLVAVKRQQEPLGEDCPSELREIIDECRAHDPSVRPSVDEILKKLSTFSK
A value of pKd is the negative decimal logarithm of a concentration given in moles per litre.

Below: 5 compounds and their reported pKd.
- compound: "Nc1ncc(-c2cnn(C3CCN(CCOC4CCN(C(=O)C5CCN(c6ccc7c(c6)C(=O)N(C6CCC(=O)NC6=O)C7=O)CC5)CC4)CC3)c2)nc1C(=O)OC(C(=O)Nc1ccc(F)cc1)c1ccccc1 (stereo not shown)"
  endpoint result: 8.07
- compound: "Nc1ncc(-c2cnn(C3CCN(CCC4CCN(C(=O)Cc5cccc(NC6=CC(=O)N(C7CCC(=O)NC7=O)C6=O)c5)CC4)CC3)c2)nc1C(=O)O[C@@H](C(=O)Nc1ccc(F)cc1)c1ccccc1 (stereo partly shown)"
  endpoint result: 8.37
- compound: "Nc1ncc(-c2cnn(C3CCN(CCC4CCN(C(=O)C5CCN(c6ccc7c(c6)C(=O)N(C6CCC(=O)NC6=O)C7=O)CC5)CC4)CC3)c2)nc1C(=O)O[C@@H](C(=O)Nc1ccc(F)cc1)c1ccccc1 (stereo partly shown)"
  endpoint result: 9.13
- compound: "Nc1ncc(-c2cnn(C3CCN(CCOCCNC(=O)C4CN(c5cccc6c5C(=O)N(C5CCC(=O)NC5=O)C6=O)C4)CC3)c2)nc1C(=O)O[C@@H](C(=O)Nc1ccc(F)cc1)c1ccccc1 (stereo partly shown)"
  endpoint result: 8.04
- compound: "Nc1ncc(-c2ccc(N3CCN(CC4CCN(C(=O)C5CCN(c6cccc7c6C(=O)N(C6CCC(=O)NC6=O)C7=O)CC5)CC4)CC3)nc2)nc1C(=O)OC(C(=O)Nc1ccc(F)cc1)c1ccccc1 (stereo not shown)"
  endpoint result: 6.85

Would you kindly look at the next entry?
Task: Output reported pKd of the compound Nc1ncc(-c2cnn(C3CCN(C(=O)CCC4CCN(C(=O)CCc5cccc6c5C(=O)N(C5CCC(=O)NC5=O)C6=O)CC4)CC3)c2)nc1C(=O)O[C@@H](C(=O)Nc1ccc(F)cc1)c1ccccc1 (stereo partly shown) on MLKL (Homo sapiens).
Result: 9.00
